Protein target, amino acids: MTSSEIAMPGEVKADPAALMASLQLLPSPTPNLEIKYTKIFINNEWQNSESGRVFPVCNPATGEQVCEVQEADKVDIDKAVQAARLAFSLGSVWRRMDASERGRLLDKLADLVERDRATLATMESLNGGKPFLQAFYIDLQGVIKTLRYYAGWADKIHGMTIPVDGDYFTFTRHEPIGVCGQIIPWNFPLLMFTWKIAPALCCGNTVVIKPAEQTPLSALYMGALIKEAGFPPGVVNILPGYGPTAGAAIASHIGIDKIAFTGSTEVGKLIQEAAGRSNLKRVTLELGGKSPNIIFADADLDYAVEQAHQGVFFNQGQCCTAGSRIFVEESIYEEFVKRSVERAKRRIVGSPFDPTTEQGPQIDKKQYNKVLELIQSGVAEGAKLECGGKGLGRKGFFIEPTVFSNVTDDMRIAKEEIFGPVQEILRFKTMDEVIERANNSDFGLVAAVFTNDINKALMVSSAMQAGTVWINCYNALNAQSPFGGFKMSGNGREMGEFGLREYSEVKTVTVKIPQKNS
READOUT_LABEL: IC50 (nM)

Sample records with IC50:
SMILES_RECORD: CCc1cnc(F)cc1C(=O)Nc1ccc2c(c1)CCC(=O)N2
READOUT_NUMBER: 366
--
SMILES_RECORD: CC1(C)Cc2cc(Nc3ccc4c(Cl)cccc4n3)ccc2NC1=O
READOUT_NUMBER: 300
--
SMILES_RECORD: Cc1cc2ccccc2nc1Nc1ccc2c(c1)CC(C)(C)C(=O)N2
READOUT_NUMBER: 97

A = Cc1ccc2ccc(Nc3ccc4c(c3)CCC(=O)N4)nc2c1
B = Cc1cccc2ccc(Nc3ccc4c(c3)CC(C)(C)C(=O)N4)nc12
Query :: Which record shows the lower IC50: the first, A , or the second, B ? API: response body contains the label of the selected item.
Result :: B

* * *

Target: UniProtKB O94788
Sequence (O94788 1-518): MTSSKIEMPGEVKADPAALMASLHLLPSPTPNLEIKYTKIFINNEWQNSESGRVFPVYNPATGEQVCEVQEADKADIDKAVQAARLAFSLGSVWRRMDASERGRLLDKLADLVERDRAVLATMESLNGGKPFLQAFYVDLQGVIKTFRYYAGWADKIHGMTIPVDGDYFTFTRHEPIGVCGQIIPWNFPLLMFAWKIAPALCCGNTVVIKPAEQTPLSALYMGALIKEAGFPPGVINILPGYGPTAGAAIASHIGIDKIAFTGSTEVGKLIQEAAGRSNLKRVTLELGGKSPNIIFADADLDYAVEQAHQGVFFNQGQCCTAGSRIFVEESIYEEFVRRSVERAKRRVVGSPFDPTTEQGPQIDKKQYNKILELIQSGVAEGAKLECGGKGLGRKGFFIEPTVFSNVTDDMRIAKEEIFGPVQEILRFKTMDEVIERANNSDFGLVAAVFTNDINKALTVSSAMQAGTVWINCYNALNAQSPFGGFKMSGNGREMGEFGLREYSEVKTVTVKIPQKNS
pIC50: −log10 of the molar value.
READOUT_LABEL: pIC50

Sample records with pIC50:
MOLECULE: CCc1cnccc1C(=O)Nc1cc2c(cc1F)NC(=O)CC2(C)C
pIC50: 5.98
//
MOLECULE: CCc1cnccc1C(=O)Nc1ccc2c(c1)C(C)CC(=O)N2 (stereo not shown)
pIC50: 5.55
//
MOLECULE: Cc1cc2ccccc2nc1Nc1ccc2c(c1)CC(C)(C)C(=O)N2
pIC50: 6.90

P = CCc1cnc(C)cc1C(=O)Nc1cc2c(cc1F)NC(=O)CC2 [compound 8]
Q = CC1(C)Cc2cc(Nc3ncc4ccccc4n3)ccc2NC1=O
Query :: Short answer wanted: higher pIC50, P or Q ? API: response body contains the label of the selected item.
Result :: Q
(Q: 7.10, P: 5.05)

P = O=C1CCc2cc(Nc3ccc4ccccc4n3)ccc2N1
Q = CC1(C)Cc2cc(Nc3ccc4ccncc4n3)ccc2NC1=O
Query :: Short answer wanted: higher pIC50, P or Q ? API: response body contains the label of the selected item.
Result :: P

* * *

Target protein (sequence): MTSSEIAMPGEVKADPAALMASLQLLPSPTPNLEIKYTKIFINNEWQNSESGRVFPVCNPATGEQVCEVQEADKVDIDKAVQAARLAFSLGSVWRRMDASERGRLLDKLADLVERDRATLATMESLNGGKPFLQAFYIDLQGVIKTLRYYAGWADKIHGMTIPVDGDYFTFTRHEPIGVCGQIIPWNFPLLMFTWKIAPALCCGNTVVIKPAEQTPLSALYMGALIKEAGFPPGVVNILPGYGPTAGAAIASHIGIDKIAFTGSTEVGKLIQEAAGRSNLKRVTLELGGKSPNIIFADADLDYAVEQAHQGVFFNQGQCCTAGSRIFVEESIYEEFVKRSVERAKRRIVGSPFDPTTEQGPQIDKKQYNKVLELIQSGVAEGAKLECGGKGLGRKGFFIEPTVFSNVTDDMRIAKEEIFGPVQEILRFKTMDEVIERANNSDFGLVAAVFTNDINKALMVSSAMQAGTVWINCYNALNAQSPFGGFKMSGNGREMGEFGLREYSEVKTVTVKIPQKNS
READOUT_LABEL: IC50 (µM)

COMPOUND: N#Cc1ccc2ccc(Nc3ccc4c(c3)CCC(=O)N4)nc2c1
IC50 (µM): 6.38
//
COMPOUND: Cc1cnccc1C(=O)Nc1cc2c(cc1F)NC(=O)CC2
IC50 (µM): 10
//
COMPOUND: CCc1cnccc1/C=C/c1ccc2c(c1)CC(C)(C)C(=O)N2
IC50 (µM): 3

1 = O=C1CCc2cc(NC(=O)c3ccncc3CC3CC3)c(F)cc2N1
2 = CCc1cnccc1C(=O)Nc1ccc2c(c1)CC(C)C(=O)N2 (stereo not shown)
3 = Cc1cnccc1/C=C/c1ccc2c(c1)CCC(=O)N2
4 = Cc1cc(C(=O)Nc2ccc3c(c2)CC2(CC2)C(=O)N3)c(Cl)cn1
Query :: In this exercise, place the 4 compounds in ascending sequence of their recorded IC50. # respond with the labels, arranged in the requested order
Result :: 2, 1, 4, 3

* * *

Target chain: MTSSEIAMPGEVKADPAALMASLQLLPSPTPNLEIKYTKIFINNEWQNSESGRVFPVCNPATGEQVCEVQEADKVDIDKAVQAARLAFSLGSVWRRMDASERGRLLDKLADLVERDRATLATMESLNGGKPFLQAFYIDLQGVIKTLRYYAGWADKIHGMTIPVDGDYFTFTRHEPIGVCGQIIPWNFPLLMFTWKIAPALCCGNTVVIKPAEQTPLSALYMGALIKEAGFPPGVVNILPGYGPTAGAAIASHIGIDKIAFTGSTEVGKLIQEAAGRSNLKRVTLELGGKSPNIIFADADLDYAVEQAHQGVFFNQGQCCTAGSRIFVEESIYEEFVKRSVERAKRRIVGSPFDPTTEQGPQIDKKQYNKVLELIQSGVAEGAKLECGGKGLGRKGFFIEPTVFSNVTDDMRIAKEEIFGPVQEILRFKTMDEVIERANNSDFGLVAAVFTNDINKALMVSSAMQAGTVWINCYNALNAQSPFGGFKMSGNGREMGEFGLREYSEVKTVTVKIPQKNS
READOUT_LABEL: IC50 (nM)

Sample records with IC50:
COMPOUND: CCc1cnccc1C(=O)Nc1ccc2c(c1)C(C)(C)CC(=O)N2 [compound 19]
IC50 (nM): 1050
--
COMPOUND: CC1(C)Cc2cc(Nc3ccc4ccncc4n3)ccc2NC1=O [compound 94]
IC50 (nM): 921

I = C=CCc1cnccc1C(=O)Nc1ccc2c(c1)CCC(=O)N2 [compound 71]
II = CC1(C)Cc2cc(Nc3ncc4ccccc4n3)ccc2NC1=O [compound 93]
Query :: Short answer wanted: higher IC50, I or II ? API: response body contains the label of the selected item.
Result :: I
(I: 747 nM, II: 63 nM)

* * *

Target sequence: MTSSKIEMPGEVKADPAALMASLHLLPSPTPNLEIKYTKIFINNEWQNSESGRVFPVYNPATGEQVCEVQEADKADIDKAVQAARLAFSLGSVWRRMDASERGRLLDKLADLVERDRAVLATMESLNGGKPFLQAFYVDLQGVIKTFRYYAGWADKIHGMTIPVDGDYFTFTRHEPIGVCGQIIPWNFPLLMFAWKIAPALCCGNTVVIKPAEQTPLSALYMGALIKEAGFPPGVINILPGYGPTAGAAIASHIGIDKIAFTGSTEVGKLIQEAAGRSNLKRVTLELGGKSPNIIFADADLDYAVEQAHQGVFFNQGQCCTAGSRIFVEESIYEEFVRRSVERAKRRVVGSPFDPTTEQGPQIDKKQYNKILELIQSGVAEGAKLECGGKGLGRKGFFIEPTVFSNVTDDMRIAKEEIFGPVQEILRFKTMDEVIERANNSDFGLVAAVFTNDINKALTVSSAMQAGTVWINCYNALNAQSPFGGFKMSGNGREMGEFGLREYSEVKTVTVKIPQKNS
READOUT_LABEL: IC50 (µM)

Sample records with IC50:
COMPOUND: Cc1cnccc1/C=C/c1ccc2c(c1)CCC(=O)N2
IC50 / µM: 9
--
COMPOUND: CCc1ccccc1C(=O)Nc1cc2c(cc1F)NC(=O)CC2
IC50 / µM: 5
--
COMPOUND: O=C1CCc2cc(NCc3ccccc3)ccc2N1
IC50 / µM: 10

A = CC1(C)Cc2cc(Nc3cnc4ccccc4n3)ccc2NC1=O
B = CC1(C)Cc2cc(Nc3ccc4ccccc4n3)c(F)cc2NC1=O
C = Cc1cccc2ncc(Nc3ccc4c(c3)CCC(=O)N4)cc12
D = Cc1cccc2ccc(Nc3ccc4c(c3)CC(C)(C)C(=O)N4)nc12
E = CCc1cnc(F)cc1C(=O)Nc1ccc2c(c1)CCC(=O)N2
Query :: In this exercise, place the 5 compounds in ascending sequence of their recorded IC50. # respond with the labels, arranged in the requested order
Result :: A, B, D, E, C
(A: 0.04 µM, B: 0.099 µM, D: 0.196 µM, E: 0.46 µM, C: 1.89 µM)

I = CCc1cnc(C)cc1C(=O)Nc1cc2c(cc1F)NC(=O)CC2 [compound 79]
II = N#Cc1ccc2ccc(Nc3ccc4c(c3)CCC(=O)N4)nc2c1
III = O=C1CCc2cc(Nc3ccc4ccccc4n3)c(F)cc2N1
IV = CCc1cnccc1C(=O)Nc1ccc2c(c1)CC(C)(C)C(=O)N2
V = CC1(C)Cc2cc(Nc3ccc4c(n3)CCCC4=O)ccc2NC1=O
Query :: In this exercise, place the 5 compounds in ascending sequence of their recorded IC50. # respond with the labels, arranged in the requested order
Result :: III, V, I, IV, II

a = CCc1cnccc1C(=O)Nc1cc2ccc(=O)[nH]c2cc1F
b = CC1(C)Cc2cc(Nc3ccc4c(Cl)cccc4n3)ccc2NC1=O
Query :: Which record shows the lower IC50: the first, a , or the second, b ? API: response body contains the label of the selected item.
Result :: b
(b: 0.346 µM, a: 3.5 µM)

1 = CC1(C)Cc2cc(Nc3nc4ccccc4[nH]3)ccc2NC1=O
2 = Cc1ccc2ccc(Nc3ccc4c(c3)CCC(=O)N4)nc2c1
Query :: Short answer wanted: higher IC50, 1 or 2 ? API: response body contains the label of the selected item.
Result :: 1
